- Assay name: Half life in rat at 30 mg/kg, po
- Format: ADME, organism-based
- Set-up: dose 30 mg/kg, route oral
- Experimental context: in vivo
Measure name: half-life (h)
Write it as a number; the unit h goes unstated.

Given the compound Cc1cccc(-n2nc(C(C)(C)C)cc2/C(=N/O)C(=O)Nc2ccc(OCCN3CCOCC3)c3ccccc23)c1 , what is its reported half-life?
2.9

====

- Assay name: Volume of distribution at steady state in rat at 10 mg/kg, iv
- Type: ADME, organism-based
- Parameters: dose 10 mg/kg, route intravenous
- Experimental context: in vivo, read-out: Vdss
Measure name: Vd

Given the molecule Cc1cccc(-n2nc(C(C)(C)C)cc2/C(=N/O)C(=O)Nc2ccc(OCCN3CCOCC3)c3ccccc23)c1 , what is its reported Vd?
1.5 L/kg

====

- Assay name: Clearance in rat at 10 mg/kg, iv
- Type: ADME, organism-based
- Design: dose 10 mg/kg, route intravenous
- Experimental context: in vivo
Measure name: clearance (mL/min/kg)
Write it as a number; the unit mL/min/kg goes unstated.

Given the molecule Cc1cccc(-n2nc(C(C)(C)C)cc2/C(=N/O)C(=O)Nc2ccc(OCCN3CCOCC3)c3ccccc23)c1 , what is its reported clearance?
10.2

====

- Test system: Mitogen-activated protein kinase 14 (Homo sapiens, UniProt Q16539)
- Sequence (Q16539 whole entry): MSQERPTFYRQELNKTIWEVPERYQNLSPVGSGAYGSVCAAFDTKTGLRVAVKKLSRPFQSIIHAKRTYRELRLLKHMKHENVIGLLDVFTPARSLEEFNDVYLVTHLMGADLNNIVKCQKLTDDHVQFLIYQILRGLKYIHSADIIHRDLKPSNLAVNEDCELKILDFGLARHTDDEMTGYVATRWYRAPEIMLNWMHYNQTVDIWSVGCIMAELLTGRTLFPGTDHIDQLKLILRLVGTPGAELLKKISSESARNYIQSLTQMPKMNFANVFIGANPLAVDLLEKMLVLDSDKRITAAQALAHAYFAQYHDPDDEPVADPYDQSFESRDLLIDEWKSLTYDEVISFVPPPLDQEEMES
- Assay name: Inhibition of human p38alpha phosphorylation
pIC50 reference
# log scale: pIC50 equals minus log10 of the concentration in mol/L

In [3]: df
Out[3]:
                                chem_smiles                               test_system  result_number
0  Cc1cccc(-n2nc(C(C)(C)C)cc2/C(=N/O)C(=O)Nc2ccc(OCCN3CCOCC3)c3ccccc23)c1  Mitogen-activated protein kinase 14 (Homo sapiens, UniProt Q16539)           7.00
1  Cc1oc(C(C)(C)C)cc1C(=O)C(=O)Nc1ccc(-c2ccc(CN3CCOCC3)nc2)c2ccccc12  Mitogen-activated protein kinase 14 (Homo sapiens, UniProt Q16539)           7.70
2  Cc1oc(C(C)(C)C)cc1C(=O)C(=O)Nc1ccc(OCCN2CCOCC2)c2ccccc12  Mitogen-activated protein kinase 14 (Homo sapiens, UniProt Q16539)           6.57

Given the molecule Cn1nc(C(C)(C)C)cc1C(=O)C(=O)Nc1ccc(OCCN2CCOCC2)c2ccccc12 , what is its reported pIC50?
7.15

====

- Test system: Mitogen-activated protein kinase 14 (Homo sapiens)
- Assay name: Inhibition of human p38alpha
pIC50 reference
# log scale: pIC50 equals minus log10 of the concentration in mol/L

In [3]: df
Out[3]:
                                chem_smiles  result_number
0  Cc1oc(C(C)(C)C)cc1C(=O)C(=O)Nc1ccc(OCCN2CCOCC2)c2ccccc12           7.66

Value wanted: pIC50 (Mitogen-activated protein kinase 14 (Homo sapiens)) of entry Cc1oc(C(C)(C)C)cc1C(=O)C(=O)Nc1ccc(-c2ccc(CN3CCOCC3)nc2)c2ccccc12
7.23

Value wanted: pIC50 (Mitogen-activated protein kinase 14 (Homo sapiens)) of entry Cn1nc(C(C)(C)C)cc1C(=O)C(=O)Nc1ccc(OCCN2CCOCC2)c2ccccc12
7.85

Value wanted: pIC50 (Mitogen-activated protein kinase 14 (Homo sapiens)) of entry Cc1cccc(-n2nc(C(C)(C)C)cc2/C(=N/O)C(=O)Nc2ccc(OCCN3CCOCC3)c3ccccc23)c1
7.23
